Test system: Saccharomyces cerevisiae
Assay: protein stability index of tFT-peptide fusion (C-terminal peptide) (PSI (0-1 scale)); higher = more stable (slower turnover)
Details: genetic background: das1 deletion; temperature: 37 C
sequences and their reported protein stability index
The answer should be a number; do not append a unit.

Record lookup: for Saccharomyces cerevisiae, what protein stability index belongs to IKKKKRKKIKAN ?
0.751

Record lookup: for Saccharomyces cerevisiae, what protein stability index belongs to LLVVGPVRLVVH ?
0.346

Record lookup: for Saccharomyces cerevisiae, what protein stability index belongs to GAWLAVCVVREG ?
0.589

Record lookup: for Saccharomyces cerevisiae, what protein stability index belongs to EVGTMALISCSV ?
0.458

Record lookup: for Saccharomyces cerevisiae, what protein stability index belongs to RRRRGGQSPALR ?
0.693

Record lookup: for Saccharomyces cerevisiae, what protein stability index belongs to FFATFVPSFLLC ?
0.678

Record lookup: for Saccharomyces cerevisiae, what protein stability index belongs to PPLPPVCPSPSL ?
0.727

Record lookup: for Saccharomyces cerevisiae, what protein stability index belongs to KKKKNIKIKKQI ?
0.711

***
Record lookup: for Saccharomyces cerevisiae, what protein stability index belongs to LRMSLLVFLLFA ?
0.442

Record lookup: for Saccharomyces cerevisiae, what protein stability index belongs to VNRRCWISRTLP ?
0.713

* * *

System: Saccharomyces cerevisiae;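 also: PSI is a weighted mean of sequencing reads over stability bins, variants kept only with over 10 reads, mCherry proximal and sfGFP distal, peptide attached via GGGS linker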
Experiment: protein stability index of tFT-peptide fusion (C-terminal peptide) (PSI (0-1 scale)); higher = more stable (slower turnover)
Settings: genetic background: doa10 deletion; temperature: 30 C
Param threshold (0.2) applies to protein stability index; output true (1) when value >= threshold, false (0) when value < threshold.

Solved entries (count: 3):
Hi, just wondering whether EERKIFLKVVKV shows protein stability index of 0.2 or higher.
true (1)

Hi, just wondering whether CFWLLSSLLLFL shows protein stability index of 0.2 or higher.
true (1)

Hi, just wondering whether PFFHVFLLLLLI shows protein stability index of 0.2 or higher.
true (1)

***
Hi, just wondering whether FGLRVHPIVFIF shows protein stability index of 0.2 or higher.
false (0)

Hi, just wondering whether LFIFYCFFFLVR shows protein stability index of 0.2 or higher.
true (1)

Hi, just wondering whether DCRFIIFYCVMV shows protein stability index of 0.2 or higher.
true (1)

Hi, just wondering whether YNTRLCTFSCML shows protein stability index of 0.2 or higher.
true (1)

Hi, just wondering whether IGFFFACFFSVF shows protein stability index of 0.2 or higher.
true (1)

Hi, just wondering whether EMISRNVFTYLS shows protein stability index of 0.2 or higher.
true (1)

Hi, just wondering whether RWGLCFVHVTMF shows protein stability index of 0.2 or higher.
false (0)

Hi, just wondering whether YLAGPLARLRKF shows protein stability index of 0.2 or higher.
true (1)

Hi, just wondering whether VTTTWTWTVRLC shows protein stability index of 0.2 or higher.
false (0)

Hi, just wondering whether EMPRLSKAIRVT shows protein stability index of 0.2 or higher.
true (1)

Hi, just wondering whether LFWWCMVFISLI shows protein stability index of 0.2 or higher.
true (1)

Hi, just wondering whether EWSRVVRWNWDG shows protein stability index of 0.2 or higher.
false (0)

Hi, just wondering whether CLAWWLGRVWVC shows protein stability index of 0.2 or higher.
false (0)

Hi, just wondering whether DAIVLGSVVVCR shows protein stability index of 0.2 or higher.
true (1)

Hi, just wondering whether IWYGLFWLRFWV shows protein stability index of 0.2 or higher.
true (1)

Hi, just wondering whether VGCMVVIWVLWG shows protein stability index of 0.2 or higher.
false (0)
